- Assay Target: human UTR2 receptor (Homo sapiens)
- Sequence (Q9UKP6 whole entry): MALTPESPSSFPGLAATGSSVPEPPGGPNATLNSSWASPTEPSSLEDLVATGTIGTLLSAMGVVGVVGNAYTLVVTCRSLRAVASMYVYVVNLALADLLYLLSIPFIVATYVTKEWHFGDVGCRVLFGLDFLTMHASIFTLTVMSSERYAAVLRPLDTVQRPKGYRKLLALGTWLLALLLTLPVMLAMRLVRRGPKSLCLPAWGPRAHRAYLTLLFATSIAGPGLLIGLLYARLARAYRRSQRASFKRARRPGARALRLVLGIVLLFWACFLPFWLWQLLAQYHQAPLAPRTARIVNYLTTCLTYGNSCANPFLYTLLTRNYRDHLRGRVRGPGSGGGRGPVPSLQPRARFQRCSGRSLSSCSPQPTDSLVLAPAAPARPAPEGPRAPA
- Assay Summary: Ca2+ assay: UTR2 receptor-agonizing and antagonizing activity (calcium mobilization, Flexstation)
For each entry below, report its EC50 value.

For the compound shown here, CC(C)[C@@H]1NC(=O)[C@@H]2CSSC[C@H](NC(=O)[C@H](CC(=O)O)NC(=O)[C@@H]3CCCN3C(=O)[C@H]3CCCN3C1=O)C(=O)N[C@@H](Cc1ccccc1)C(=O)N[C@@H](Cc1c[nH]c3ccccc13)C(=O)N[C@@H](CCCCN)C(=O)N[C@@H](Cc1ccc(O)cc1)C(=O)N2 , give the reported EC50.
< 2 nM

Need EC50 of CC(C)[C@@H]1NC(=O)[C@@H]2CSSC[C@H](NC(=O)[C@H](CC(=O)O)NC(=O)[C@@H]3CCCN3C(=O)[C@H]3CCCN3C1=O)C(=O)N[C@@H](Cc1ccccc1)C(=O)N[C@H](Cc1c[nH]c3ccccc13)C(=O)N[C@@H](CCCCN)C(=O)N[C@@H](Cc1ccc(O)cc1)C(=O)N2 , thanks.
< 2 nM

* * *

- Assay Summary: in vitro
- Assay type: cell-based
- Assay Context: African green monkey
- Protocol: The cytotoxicity of the peptides to HELA cells (Acc57) and COS-7 cells (CRL-1651) was determined using the MTT reduction assay. […] Thereafter, time zero (Tz) was determined by MTT reduction (see below). […] The absorbance of the solubilized formazan was measured at 595 nm (OD595peptide). For each concentration averages were calculated from triplicates. The percentage of growth was calculated as follows: (OD595peptide-OD595Tz-OD595Empty well)/(OD595Tz-OD595Empty well)×100%. […]
Bridge positions count the residues as written; N and C are the ends. Square brackets hold non-standard residues; d marks the D form. Peptide text beside a SMILES is read from it. Cha = N[C@@H](CC1CCCCC1)C(=O)O; Orn = NCCC[C@H](N)C(=O)O
Give measured GI50 at 48 h for each item. Keep answers brief.

Could you tell me which GI50 at 48 h is on file for NCCCC[C@@H]1NC(=O)[C@H](Cc2c[nH]c3ccccc23)NC(=O)[C@H](Cc2ccccc2)NC(=O)[C@@H]2CSSC[C@H](NC(=O)[C@H](Cc3ccc(O)cc3)NC1=O)C(=O)N[C@@H](CC1CCCCC1)C(=O)N1CCC[C@@H]1C(=O)N1CCC[C@H]1C(=O)N[C@@H](CC(=O)O)C(=O)N2 [compound 35] (cyclo(DCFWKYC[Cha][dP]P); disulfide 2-7) ?
> 50 µM

Need GI50 at 48 h, item CC(C)[C@@H]1NC(=O)[C@@H]2CSSC[C@H](NC(=O)[C@H](CC(=O)O)NC(=O)[C@@H]3CCCN3C(=O)[C@H]3CCCN3C1=O)C(=O)N[C@@H](Cc1ccccc1)C(=O)N[C@H](Cc1c[nH]c3ccccc13)C(=O)N[C@@H](CCCN)C(=O)N[C@@H](Cc1ccc(O)cc1)C(=O)N2 [compound 32] (cyclo(DCF[dW][Orn]YCV[dP]P); disulfide 2-7)
> 50 µM

* * *

- Assay Target: human UTR2 receptor (Homo sapiens)
- Assay Summary: Ca2+ assay: UTR2 receptor-agonizing and antagonizing activity (calcium mobilization, Flexstation)
Measurement Kind: EC50

Need EC50, item CC(C)C[C@@H]1NC(=O)[C@@H]2CSSC[C@H](NC(=O)[C@H](CC(=O)O)NC(=O)[C@@H]3CCCN3C(=O)[C@@H](CO)NC1=O)C(=O)N[C@@H](Cc1ccccc1)C(=O)N[C@@H](Cc1c[nH]c3ccccc13)C(=O)N[C@@H](CCCCN)C(=O)N[C@@H](Cc1ccc(O)cc1)C(=O)N2 [Ex. 28]
< 2 nM

If you can, please state the reported EC50 value of CC(C)C[C@@H]1NC(=O)[C@@H]2CSSC[C@H](NC(=O)[C@H](CC(=O)O)NC(=O)[C@@H]3CCCN3C(=O)[C@H]3CCCN3C1=O)C(=O)N[C@@H](Cc1ccc(O)cc1)C(=O)N[C@@H](Cc1c[nH]c3ccccc13)C(=O)N[C@@H](CCCCN)C(=O)N[C@@H](Cc1ccc(O)cc1)C(=O)N2 [compound 33] .
< 2 nM

For the compound shown here, CC(C)C[C@@H]1NC(=O)[C@@H]2CSSC[C@H](NC(=O)[C@H](CC(=O)O)NC(=O)[C@@H]3CCCN3C(=O)[C@@H](CCC(=O)O)NC1=O)C(=O)N[C@@H](Cc1ccccc1)C(=O)N[C@@H](Cc1c[nH]c3ccccc13)C(=O)N[C@@H](CCCCN)C(=O)N[C@@H](Cc1ccc(O)cc1)C(=O)N2 [compound 30] , give the reported EC50.
< 2 nM
